meta.source: patent US8044079B2

The following compounds have recorded Ki on human vasopressin V1b receptor (Homo sapiens).

Would you please look over these solved cases?
[
  {
    "compound": "CCN1CCN(Cc2ccc(C3(N4C[C@H](O)C[C@H]4c4ncco4)C(=O)N(S(=O)(=O)c4ccc(OC)cc4)c4ccc(C#N)cc43)c(OC)c2)CC1 (stereo partly drawn) [Example 179]",
    "measurement": "< 10 nM"
  },
  {
    "compound": "CCN1CCN(Cc2ccc(OC)c(C3(N4CCC[C@H]4c4ncco4)C(=O)N(S(=O)(=O)c4ccc(OC)cc4)c4ccc(Cl)cc43)c2)CC1 (stereo partly drawn) [Example 88]",
    "measurement": "< 10 nM"
  },
  {
    "compound": "COc1ccc(S(=O)(=O)N2C(=O)C(c3cc(CN4CCNCC4)ccc3OC)(N3C[C@H](O)C[C@H]3c3ncco3)c3cc(C#N)ccc32)cc1 (stereo partly drawn) [Example 160]",
    "measurement": "< 10 nM"
  },
  {
    "compound": "CNCc1ccc(OC)c(C2(N3CCCC3c3nccs3)C(=O)N(S(=O)(=O)c3ccc(OC)cc3)c3ccc(Cl)cc32)c1 (stereo not drawn) [Example 155]",
    "measurement": "< 10 nM"
  },
  {
    "compound": "COc1ccc(S(=O)(=O)N2C(=O)C(c3cc(CN(C)C)ccc3OC)(N3CCC[C@H]3c3ncc(C)o3)c3cc(Cl)ccc32)cc1 (stereo partly drawn) [Example 234]",
    "measurement": "10 to 100 nM"
  }
]

Lab note: next compound to report on.
# returns recorded Ki (system: human vasopressin V1b receptor (Homo sapiens)) for COc1ccc(S(=O)(=O)N2C(=O)C(c3cc(CN4CCCCC4)ccc3OC)(N3CCC[C@H]3c3ncco3)c3cc(C#N)ccc32)cc1 (stereo partly drawn) [Example 61]
10 to 100 nM

###

# reported Ki; entries follow
# tested.system: human vasopressin V1b receptor (Homo sapiens, UniProt P47901)
# Construct: expressed in transfected cells; host or cells: CHO-K1 (cell line hV1b_3H2_CHO), membrane preparation
# assay.details: Vasopressin V1b receptor binding test
# condition.parameters: membranes of CHO-K1 cells with human V1b receptor, displacement of 1.5 nM 3H-AVP; for compounds with more than one stereogenic center the diastereomer with greater affinity

[
  {
    "compound": "COc1ccc(S(=O)(=O)N2C(=O)C(c3cc(CN4CCN(CCO)CC4)ccc3OC)(N3C[C@H](F)C[C@H]3c3ncco3)c3cc(C#N)ccc32)cc1 (stereo partly drawn) [Example 229]",
    "Ki": "10 to 100 nM"
  },
  {
    "compound": "COc1cc(CN2CCNCC2)ccc1C1(N2CCC[C@H]2c2ncco2)C(=O)N(S(=O)(=O)c2ccc(C#N)cc2)c2ccc(Cl)cc21 (stereo partly drawn) [Example 162]",
    "Ki": "< 10 nM"
  }
]

Now for a further compound.
Entry under review: COc1ccc(S(=O)(=O)N2C(=O)C(c3cc(CN4CCCC4)ccc3OC)(N3C[C@H](OC(C)(C)C)C[C@H]3c3ncco3)c3cc(Cl)ccc32)cc1 (stereo partly drawn) [Example 213] . Reported Ki?
10 to 100 nM

###

Target protein (sequence): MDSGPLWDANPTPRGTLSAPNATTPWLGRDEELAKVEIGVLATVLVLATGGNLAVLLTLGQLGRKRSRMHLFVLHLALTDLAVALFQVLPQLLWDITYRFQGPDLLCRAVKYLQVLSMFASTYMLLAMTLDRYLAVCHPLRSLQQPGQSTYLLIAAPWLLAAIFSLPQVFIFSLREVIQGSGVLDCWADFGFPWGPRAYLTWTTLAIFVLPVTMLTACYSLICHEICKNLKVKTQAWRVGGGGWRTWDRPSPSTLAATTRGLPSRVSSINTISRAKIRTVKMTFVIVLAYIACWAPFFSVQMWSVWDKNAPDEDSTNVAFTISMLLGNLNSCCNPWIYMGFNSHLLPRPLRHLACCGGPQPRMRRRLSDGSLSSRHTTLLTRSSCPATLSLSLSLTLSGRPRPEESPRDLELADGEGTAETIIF
assay.metric: Ki

Consider the following illustrative entries.
[
  {
    "molecule": "CCN(C)Cc1ccc(OC)c(C2(N3CCC[C@H]3c3ncco3)C(=O)N(S(=O)(=O)c3ccc(OC)cc3)c3ccc(Cl)cc32)c1 (stereo partly drawn)",
    "measurement": "< 10 nM"
  },
  {
    "molecule": "COc1ccc(S(=O)(=O)N2C(=O)C(c3ccc(CN4CCCCC4)cc3OC)(N3CCC[C@H]3c3ncco3)c3cc(Cl)ccc32)cc1 (stereo partly drawn)",
    "measurement": "< 10 nM"
  },
  {
    "molecule": "COc1ccc(S(=O)(=O)N2C(=O)C(c3cc(CNC(C)(C)C)ccc3OC)(N3CCC[C@H]3c3ncco3)c3cc(Cl)ccc32)cc1 (stereo partly drawn)",
    "measurement": "10 to 100 nM"
  },
  {
    "molecule": "CCNCc1ccc(OC)c(C2(N3CCC[C@@]3(C)c3ncco3)C(=O)N(S(=O)(=O)c3ccc(OC)cc3)c3ccc(Cl)cc32)c1 (stereo partly drawn)",
    "measurement": "< 10 nM"
  }
]

Can you share its Ki? I mean this molecule: COc1ccc(S(=O)(=O)N2C(=O)C(c3ccc(CN(C)C)cc3OC)(N3C[C@H](O)C[C@H]3c3ncco3)c3cc(C#N)ccc32)cc1 (stereo partly drawn)
10 to 100 nM

What value of measured Ki is listed for COc1ccc(S(=O)(=O)N2C(=O)C(c3cc(CN4CCN(C)CC4)ccc3OC)(N3CCC[C@H]3c3ncco3)c3cc(Cl)c(Cl)cc32)cc1 (stereo partly drawn) ?
10 to 100 nM

For CCNCc1ccc(OC)c(C2(N3CCC[C@H]3c3ncon3)C(=O)N(S(=O)(=O)c3ccc(OC)cc3)c3ccc(Cl)cc32)c1 (stereo partly drawn) , what is its reported Ki?
< 10 nM

What value of Ki has been reported for the following molecule? COc1ccc(S(=O)(=O)N2C(=O)C(c3ccc(CO)cc3OC)(N3CCC[C@H]3c3ncco3)c3cc(Cl)ccc32)cc1 (stereo partly drawn)
10 to 100 nM

Item COc1ccc(S(=O)(=O)N2C(=O)C(c3cc(CN4CCN(C)CC4)ccc3OC)(N3CCC[C@H]3c3ncco3)c3ccc(Cl)cc32)cc1 (stereo partly drawn) has what recorded Ki?
100 to 1000 nM

Which Ki value is on record for COc1ccc(S(=O)(=O)N2C(=O)C(c3ccc(CN4CCCCC4)cc3OC)(N3C[C@H](O)C[C@H]3c3ncco3)c3cc(Cl)ccc32)cc1 (stereo partly drawn) ?
< 10 nM

# Ki lookup, item COc1ccc(S(=O)(=O)N2C(=O)C(c3cc(CN4CCN(C)CC4)ccc3OC)(N3C[C@H](O)C[C@H]3c3ncco3)c3cc(Cl)ccc32)cc1 (stereo partly drawn)
< 10 nM

May I ask what Ki has been recorded for CCCNCc1ccc(C2(N3CCC[C@H]3c3ncco3)C(=O)N(S(=O)(=O)c3ccc(OC)cc3)c3ccc(C#N)cc32)c(OC)c1 (stereo partly drawn) ?
10 to 100 nM
